Data credit: paper PMC7016953

- target-or-test-system: TRPC3 (Homo sapiens, UniProt Q13507)
- Construct: expressed in transfected cells
- Sequence (Q13507 1-848 isoform Q13507-3): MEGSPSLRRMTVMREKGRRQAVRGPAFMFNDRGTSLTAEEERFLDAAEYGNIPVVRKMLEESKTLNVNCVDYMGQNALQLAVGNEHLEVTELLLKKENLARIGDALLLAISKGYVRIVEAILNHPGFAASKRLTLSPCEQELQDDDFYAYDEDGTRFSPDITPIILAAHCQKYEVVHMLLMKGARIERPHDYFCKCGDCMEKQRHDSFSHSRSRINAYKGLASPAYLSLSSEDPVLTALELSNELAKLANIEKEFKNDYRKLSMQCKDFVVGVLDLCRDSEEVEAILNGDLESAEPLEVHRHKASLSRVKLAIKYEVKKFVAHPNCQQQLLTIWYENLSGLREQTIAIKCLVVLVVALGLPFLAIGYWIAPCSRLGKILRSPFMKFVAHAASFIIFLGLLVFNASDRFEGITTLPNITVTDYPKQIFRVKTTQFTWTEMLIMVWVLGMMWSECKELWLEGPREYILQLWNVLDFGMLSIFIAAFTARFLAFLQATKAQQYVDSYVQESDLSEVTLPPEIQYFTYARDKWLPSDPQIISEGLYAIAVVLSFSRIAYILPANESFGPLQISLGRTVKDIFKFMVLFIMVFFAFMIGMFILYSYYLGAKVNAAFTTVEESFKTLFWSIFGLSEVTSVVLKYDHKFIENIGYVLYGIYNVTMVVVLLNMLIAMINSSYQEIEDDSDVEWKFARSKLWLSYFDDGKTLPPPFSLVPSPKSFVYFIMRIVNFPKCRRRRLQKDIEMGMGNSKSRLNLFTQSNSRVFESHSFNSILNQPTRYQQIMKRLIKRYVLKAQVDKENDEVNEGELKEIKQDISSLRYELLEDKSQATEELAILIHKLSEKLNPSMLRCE
- protocol: Whole-cell patch-clamp recordings in HEK TRPC3-YFP cells
- Format: cell-based
- cond: −100 mV, n = 12–27 cells, read-out: EC50 to activate TRPC3 inward currents
property-name: pEC50
Scale note: pEC50 = -log10(concentration in M).

Could you share which pEC50 value was measured for C[C@@H]1CC[C@H]2[C@@H](C)C(=O)O[C@@H]3O[C@@]4(C)CC[C@@H]1[C@]32OO4 [artemisinin] ? 4.60
